All values here come from ChEMBL document CHEMBL1681700.

Assign K to each entry below.
Test system: Calf thymus DNA
procedure.details: Binding affinity to calf thymus DNA at pH 7.4 by UV-visible spectrophotometer
Assay type: nucleic-acid assay
condition.details: Bos taurus
A complete answer gives the number followed by the unit.

1) CCN1C(=O)CN/C1=N\c1ccc2cc3ccc(/N=C4\NCC(=O)N4CC)cc3nc2c1: 7.1 ×10⁵ /M
2) CCCCCN1C(=O)CN/C1=N\c1ccc2cc3ccc(/N=C4\NCC(=O)N4CCCCC)cc3nc2c1: 2.8 ×10⁵ /M
3) CCCCN1C(=O)CN/C1=N\c1ccc2cc3ccc(/N=C4\NCC(=O)N4CCCC)cc3nc2c1: 4.2 ×10⁵ /M
4) CCCN1C(=O)CN/C1=N\c1ccc2cc3ccc(/N=C4\NCC(=O)N4CCC)cc3nc2c1.Cl: 5.7 ×10⁵ /M

Continue with the molecule presented below.
Which K is listed for CCCCCCN1C(=O)CN/C1=N\c1ccc2cc3ccc(/N=C4\NCC(=O)N4CCCCCC)cc3nc2c1.Cl ?
1.9 ×10⁵ /M

---

procedure.details: Octanol-water partition coefficient, log P of the compound
Type: physicochemical
Label key: condition met means logP under 4; condition not met means logP of 4 or more.

Reference set (3 entries):
1. CCN1C(=O)CN/C1=N\c1ccc2cc3ccc(/N=C4\NCC(=O)N4CC)cc3nc2c1: condition met
2. CCCN1C(=O)CN/C1=N\c1ccc2cc3ccc(/N=C4\NCC(=O)N4CCC)cc3nc2c1.Cl: condition met
3. CCCCCN1C(=O)CN/C1=N\c1ccc2cc3ccc(/N=C4\NCC(=O)N4CCCCC)cc3nc2c1: condition not met

Proceed to the following item.
Lab note: logP threshold 4. Does this molecule come in strictly under it? CCCCCCN1C(=O)CN/C1=N\c1ccc2cc3ccc(/N=C4\NCC(=O)N4CCCCCC)cc3nc2c1.Cl
condition not met

---

Test system: HL-60
procedure.details: Cytotoxicity against human HL60 cells after 48 hrs by MTT assay
Type: functional, cell-based
condition.details: HL-60, 48 h
pIC50: −log10 of the molar value.
Could you label it Fulfilled if measured pIC50 is 5 or higher, and Not fulfilled otherwise?

Reference set (2 entries):
1) CCCN1C(=O)CN/C1=N\c1ccc2cc3ccc(/N=C4\NCC(=O)N4CCC)cc3nc2c1.Cl: Not fulfilled
2) CCN1C(=O)CN/C1=N\c1ccc2cc3ccc(/N=C4\NCC(=O)N4CC)cc3nc2c1: Not fulfilled

Proceed to the following item.
Could you please find out whether CCCCCCN1C(=O)CN/C1=N\c1ccc2cc3ccc(/N=C4\NCC(=O)N4CCCCCC)cc3nc2c1.Cl has pIC50 that meets 5 or exceeds it?
Fulfilled

---

Test system: Calf thymus DNA
procedure.details: Binding affinity to A:T base pair region of calf thymus DNA by UV-visible spectrophotometer
Format: nucleic-acid assay
condition.details: Bos taurus
Activity calls are given as the source filed them. No cut-off for these calls is given here.
measure: Activity

1) CCCCCCN1C(=O)CN/C1=N\c1ccc2cc3ccc(/N=C4\NCC(=O)N4CCCCCC)cc3nc2c1.Cl: inactive
2) CCN1C(=O)CN/C1=N\c1ccc2cc3ccc(/N=C4\NCC(=O)N4CC)cc3nc2c1: inactive
3) CCCN1C(=O)CN/C1=N\c1ccc2cc3ccc(/N=C4\NCC(=O)N4CCC)cc3nc2c1.Cl: inactive
4) CCCCCN1C(=O)CN/C1=N\c1ccc2cc3ccc(/N=C4\NCC(=O)N4CCCCC)cc3nc2c1: inactive

Which Activity is listed for CCCCN1C(=O)CN/C1=N\c1ccc2cc3ccc(/N=C4\NCC(=O)N4CCCC)cc3nc2c1 ?
inactive
